- test_system: ALCAT1 (Homo sapiens (Human), UniProt Q6UWP7)
- Sequence (Q6UWP7 whole entry): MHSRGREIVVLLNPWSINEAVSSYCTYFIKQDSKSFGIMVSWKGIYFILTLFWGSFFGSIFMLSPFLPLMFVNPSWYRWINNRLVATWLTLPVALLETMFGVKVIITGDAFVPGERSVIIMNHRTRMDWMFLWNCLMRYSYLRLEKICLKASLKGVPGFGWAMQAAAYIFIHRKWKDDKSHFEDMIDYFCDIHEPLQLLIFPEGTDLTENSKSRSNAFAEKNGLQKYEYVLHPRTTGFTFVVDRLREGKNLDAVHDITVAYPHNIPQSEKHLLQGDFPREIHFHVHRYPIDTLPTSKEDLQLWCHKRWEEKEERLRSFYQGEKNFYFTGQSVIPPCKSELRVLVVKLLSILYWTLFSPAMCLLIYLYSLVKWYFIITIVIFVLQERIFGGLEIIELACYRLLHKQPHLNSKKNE
- protocol_description: In vitro acyltransferase assay for ALCAT1 inhibitors
- Assay type: biochemical
- test_conditions: 10 μM compound; in vitro enzymatic assay
The compounds listed here are annotated with their inhibition at 10 µM.
measurement_kind: inhibition at 10 µM (%)

>>> measured_number("O=C(Nc1cccc(-c2nnc(-c3ccco3)o2)c1)c1cccc(O)c1")
11
>>> measured_number("CC(C)Oc1ccc(Cl)cc1C(=O)Nc1cccc(-c2nnc(-c3ccco3)o2)c1")
62
>>> measured_number("CCCOc1ccccc1C(=O)Nc1cccc(-c2nnc(-c3ccco3)o2)c1")
100
>>> measured_number("CCOc1ccc(F)cc1C(=O)Nc1cccc(-c2nnc(-c3ccco3)o2)c1")
97
>>> measured_number("CCOc1ccc(Br)cc1C(=O)Nc1cccc(-c2nnc(-c3ccco3)o2)c1")
100
>>> measured_number("COc1ccc(OC)c(C(=O)Nc2cccc(-c3nnc(-c4ccco4)o3)c2)c1")
100
>>> measured_number("O=C(Nc1ccc(Cl)c(-c2nnc(-c3ccco3)o2)c1)c1ccccc1F")
2
>>> measured_number("O=C(Nc1cccc(-c2nnc(-c3ccco3)o2)c1)c1cc(F)c(F)cc1F")
92
>>> measured_number("Cc1ccc(-c2nnc(-c3cccc(NC(=O)c4ccccc4F)c3)o2)o1")
2
>>> measured_number("O=C(Nc1cccc(-c2nnc(-c3ccco3)o2)c1)c1cc(Br)ccc1F")
100
>>> measured_number("O=C(Nc1cc(-c2nnc(-c3ccco3)o2)ccc1F)c1ccccc1F")
98
>>> measured_number("N#Cc1ccccc1C(=O)Nc1cccc(-c2nnc(-c3ccco3)o2)c1")
2
>>> measured_number("O=C(Nc1cccc(-c2nnc(-c3ccco3)o2)c1)c1cccc(Br)c1F")
100
>>> measured_number("CCOc1ccccc1C(=O)Nc1cccc(-c2nnc(-c3ccco3)o2)c1")
100
>>> measured_number("CCCOc1ccc(Br)cc1C(=O)Nc1cccc(-c2nnc(-c3ccco3)o2)c1")
95
>>> measured_number("N#Cc1ccc(C(=O)Nc2cccc(-c3nnc(-c4ccco4)o3)c2)cc1")
1
>>> measured_number("O=C(Nc1cccc(-c2nnc(-c3ccco3)o2)c1)c1cccc(Cl)c1Cl")
92
>>> measured_number("O=C(Nc1cccc(-c2nnc(-c3ccco3)o2)c1)c1ccc2c(c1)OCO2")
1
>>> measured_number("O=C(O)c1ccccc1C(=O)Nc1cccc(-c2nnc(-c3ccco3)o2)c1")
9
>>> measured_number("O=C(Nc1cccc(-c2nnc(-c3ccco3)o2)c1)c1cccc(F)c1F")
97
>>> measured_number("CCCOc1ccc(Cl)cc1C(=O)Nc1cccc(-c2nnc(-c3ccco3)o2)c1")
100
>>> measured_number("O=C(Nc1cccc(-c2nnc(-c3ccco3)o2)c1)c1ccc(C(F)F)cc1")
2
>>> measured_number("COc1cccc(C(=O)Nc2cccc(-c3nnc(-c4ccco4)o3)c2)c1")
45
>>> measured_number("O=C(Nc1cc(-c2nnc(-c3ccco3)o2)ccc1Br)c1ccccc1F")
56
>>> measured_number("O=C(Nc1cccc(-c2nnc(-c3ccco3)o2)c1)c1c(F)cccc1Cl")
38
>>> measured_number("O=C(Nc1cccc(-c2nnc(-c3ccco3)o2)c1)c1ccccc1I")
43
>>> measured_number("COc1ccc(C)cc1C(=O)Nc1cccc(-c2nnc(-c3ccco3)o2)c1")
97
>>> measured_number("O=C(Nc1ccc(F)c(-c2nnc(-c3ccco3)o2)c1)c1ccccc1F")
51
>>> measured_number("O=C(Nc1cccc(-c2nnc(-c3ccco3)o2)c1)c1cc(F)ccc1F")
88
>>> measured_number("O=C(Nc1cccc(-c2nnc(-c3ccco3)o2)c1)C1CCCCC1")
2
>>> measured_number("COC(=O)c1ccccc1C(=O)Nc1cccc(-c2nnc(-c3ccco3)o2)c1")
36
>>> measured_number("COc1ccccc1C(=O)Nc1cccc(-c2nnc(-c3ccco3)o2)c1")
100
>>> measured_number("CSc1ccccc1C(=O)Nc1cccc(-c2nnc(-c3ccco3)o2)c1")
68
>>> measured_number("Cc1cccc(C(=O)Nc2cccc(-c3nnc(-c4ccco4)o3)c2)c1")
75
>>> measured_number("O=C(Nc1cccc(-c2nnc(-c3ccc(Br)o3)o2)c1)c1ccccc1F")
2
